TESTED_TARGET: human V1a receptor (Homo sapiens, UniProt P37288)
Construct: expressed in transfected cells; host or cells: HEK293 cells, transiently transfected; cell membranes
Sequence (P37288 whole entry): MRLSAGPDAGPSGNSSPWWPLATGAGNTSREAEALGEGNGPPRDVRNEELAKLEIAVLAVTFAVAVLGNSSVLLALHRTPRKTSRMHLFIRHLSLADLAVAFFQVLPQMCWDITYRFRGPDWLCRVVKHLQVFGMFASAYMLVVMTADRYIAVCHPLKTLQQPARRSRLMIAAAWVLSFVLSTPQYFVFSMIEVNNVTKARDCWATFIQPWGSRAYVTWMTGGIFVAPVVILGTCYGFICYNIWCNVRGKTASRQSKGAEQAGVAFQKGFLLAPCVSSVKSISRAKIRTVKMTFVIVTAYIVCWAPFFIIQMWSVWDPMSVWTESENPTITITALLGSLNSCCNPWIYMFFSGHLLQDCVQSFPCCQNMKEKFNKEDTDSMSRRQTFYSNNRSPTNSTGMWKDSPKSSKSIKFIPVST
ASSAY_OVERVIEW: human V1a receptor binding studies (3H-Vasopressin, SPA beads)
TEST_CONDITIONS: membranes of HEK293 cells transiently transfected with human V1a receptor, Ki by Cheng-Prussoff from IC50, read-out: pKi hV1a (converted)
Response field label: string, one of Yes (Ki strictly below 60 nM) or No.

Before answering, review these 5 worked examples.
{"COMPOUND": "CC1(Cc2ccccc2)OC(N2CCC3(CC2)OCc2ccccc23)=NC1=O (single isomer, unassigned; (+)) [Example 70]", "GROUP": "Yes"}
{"COMPOUND": "O=C1OC2(CCN(C3=NC(=O)C(Cc4ccccc4)O3)CC2)c2ccc(Br)cc21 (stereo not shown) [Example 32]", "GROUP": "No"}
{"COMPOUND": "C=CCC1OC(N2CCC3(CC2)OCc2ccccc23)=NC1=O (stereo not shown) [Example 8]", "GROUP": "No"}
{"COMPOUND": "O=C1OC2(CCN(C3=NC(=O)C(C(O)c4ccc(Cl)cc4)O3)CC2)c2ccccc21 (single isomer, unassigned) [Example 50]", "GROUP": "Yes"}
{"COMPOUND": "CCCCCC1CCC2(CC1)OC(N1CCC3(CC1)OC(=O)c1ccccc13)=NC2=O (single isomer, unassigned; diastereomer a) [Example 126]", "GROUP": "Yes"}

Exercise: Would you kindly verify if Ki of CC1(Cc2ccc(Cl)s2)OC(N2CCC3(CC2)OCc2ccccc23)=NC1=O (single isomer, unassigned; (-)) [Example 87] is strictly less than 60 nM?
Key: No

Exercise: Please do the same for O=C1N=C(N2CCC3(CC2)OCc2c(F)cccc23)OC1Cc1ccccc1 (stereo not shown) [Example 24] as well.
Key: Yes
